- test-parameters: in ethyl acetate, 317.65 K
reported-metric: solubility (mole fraction)

COc1ccc2nc(SCc3ncc(C)c(OC)c3C)[nH]c2c1	0.129

###

- test-parameters: in ethanol, 298.05 K
reported-metric: solubility (mole fraction)

COc1ccc2nc(SCc3ncc(C)c(OC)c3C)[nH]c2c1	0.00773

###

- test-parameters: in ethanol, 277.65 K
reported-metric: solubility (mole fraction)

COc1ccc2nc(SCc3ncc(C)c(OC)c3C)[nH]c2c1	0.0029

###

- test-parameters: in ethanol, 327.65 K
reported-metric: solubility (mole fraction)

COc1ccc2nc(SCc3ncc(C)c(OC)c3C)[nH]c2c1	0.0293

###

- test-parameters: in ethyl acetate, 298.05 K
reported-metric: solubility (mole fraction)

COc1ccc2nc(SCc3ncc(C)c(OC)c3C)[nH]c2c1	0.0455

###

- test-parameters: in ethanol, 317.65 K
reported-metric: solubility (mole fraction)

COc1ccc2nc(SCc3ncc(C)c(OC)c3C)[nH]c2c1	0.0189

###

- test-parameters: in ethyl acetate, 333.15 K
reported-metric: solubility (mole fraction)

COc1ccc2nc(SCc3ncc(C)c(OC)c3C)[nH]c2c1	0.256

###

- test-parameters: in ethanol, 322.15 K
reported-metric: solubility (mole fraction)

COc1ccc2nc(SCc3ncc(C)c(OC)c3C)[nH]c2c1	0.0231

###

- test-parameters: in ethyl acetate, 282.65 K
reported-metric: solubility (mole fraction)

COc1ccc2nc(SCc3ncc(C)c(OC)c3C)[nH]c2c1	0.0168

###

- test-parameters: in ethanol, 282.65 K
reported-metric: solubility (mole fraction)

COc1ccc2nc(SCc3ncc(C)c(OC)c3C)[nH]c2c1	0.00371

###

- test-parameters: in ethanol, 293.15 K
reported-metric: solubility (mole fraction)

COc1ccc2nc(SCc3ncc(C)c(OC)c3C)[nH]c2c1	0.00614
